Target: T1, B7-H3 (4Ig-B7-H3) endogenously expressed on MDA-MB-231 cells (UniProt Q5ZPR3 29-534, limits assumed)
T1 construct: whole, on cells; also called 细胞表面的B7-H3抗原
T1 sequence (looked up): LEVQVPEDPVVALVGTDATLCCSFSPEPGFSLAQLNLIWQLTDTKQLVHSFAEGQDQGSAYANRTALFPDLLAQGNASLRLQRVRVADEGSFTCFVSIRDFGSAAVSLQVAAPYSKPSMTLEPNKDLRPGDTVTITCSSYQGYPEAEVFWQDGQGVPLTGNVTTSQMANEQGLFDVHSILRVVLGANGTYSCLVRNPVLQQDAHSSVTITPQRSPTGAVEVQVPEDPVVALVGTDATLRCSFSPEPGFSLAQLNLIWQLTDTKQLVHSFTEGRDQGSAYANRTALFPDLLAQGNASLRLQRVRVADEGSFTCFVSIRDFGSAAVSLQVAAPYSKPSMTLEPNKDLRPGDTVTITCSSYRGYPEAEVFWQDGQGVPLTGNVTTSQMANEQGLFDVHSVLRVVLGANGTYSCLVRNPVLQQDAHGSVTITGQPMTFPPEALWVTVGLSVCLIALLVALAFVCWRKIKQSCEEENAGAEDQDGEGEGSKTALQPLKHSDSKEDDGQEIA
Assay: FACS, MDA-MB-231 cells

binder	binding result
h27B4-H2-L2 (antibody, human IgG1, kappa, V domains shown, Whole IgG, humanized; optimized hIgG1 (L235V, F243L, R292P, Y300L, P396L) and human kappa; also called zw.M0883B9.27B4Z01) VH: QVQLVQSGAEVKKPGSSVKVSCKASGYTFTTYWISWVRQAPGQGLEWMGGIYPGDGGSNYAQKFQGRVTITADESTSTAYMELSSLRSEDTAVYYCARGGNYISFPMYYWGQGTLVTVSS VL: VIWMTQSPSLLSASTGDRVTISCKASRGVSTALAWYQQKPGKAPELLIYWASTLQSGVPSRFSGSGSGTDFTLTISCLQSEDFATYYCQQHYDTPYTFGQGTKLEIKR	binds
scFv-27B4-H3-L3 (scFv, VH-linker-VL in phage display vector pXY, expressed in TG1, purified on a nickel column) scFv: QVQLVQSGSELKKPGASVKVSCKASGYTFTTYWMNWVRQAPGQGLEWMGWIYPGDGGSTYAQGFTGRFVFSLDTSVSTAYLQICSLKAEDTAVYYCARGGNYISFPMYYWGQGTLVTVSSGGGGSGGGGSGGGGSGGGGASEIVMTQSPATLSVSPGERATLSCKASRGVSTALAWYQQKPGQAPRLLIYWASTRATGIPARFSGSGSGTEFTLTISSLQSEDFAVYYCQQHYDTPYTFGQGTKLEIK	binds

Origin of the recorded values: patent CN113683697A
